- assay: Log P determination by shake-flask
- Assay type: physicochemical
observation-type: logP at 1 day
Hey, just send me the number, nothing else.

Entry under review: CC(C)[C@]12O[C@H]1[C@@H]1O[C@]13[C@]1(O[C@H]1C[C@H]1C4=C(CC[C@@]13C)C(=O)OC4)[C@@H]2O [Triptolide] . Reported logP at 1 day?
0.52

----------
- assay: Log P determination by shake-flask
- Assay type: physicochemical
- applied-conditions: shake-flask, n-octanol/water, 37° C.; read-out: log P
Here the recorded logP at 1 day is given for each entry.
Reply: number alone, nothing else.

Illustrative cases are given below, each with its answer.
>>> observed_result("CCCCCCCCCCCCCCCCCC(=O)O[C@@H]1[C@@]2(C(C)C)OC2[C@@H]2O[C@]23[C@]12O[C@H]2CC1C2=C(CC[C@@]13C)C(=O)OC2 (stereo partly drawn) [Triptolide stearate, triptolide stearate]")
2.41
>>> observed_result("CCCCCCCCCCCCCCCCCCCCCC(=O)O[C@@H]1[C@@]2(C(C)C)OC2[C@@H]2O[C@]23[C@]12O[C@H]2CC1C2=C(CC[C@@]13C)C(=O)OC2 (stereo partly drawn) [Triptolide behenate, triptolide behenate]")
2.78

Now take the following molecule into account.
Quick one: logP at 1 day for CCCCCCCCCCCCCCCCCCCCCCCC(=O)O[C@@H]1[C@@]2(C(C)C)OC2[C@@H]2O[C@]23[C@]12O[C@H]2CC1C2=C(CC[C@@]13C)C(=O)OC2 (stereo partly drawn) [Triptolide lignocerate, triptolide lignocerate] ?
3.12

----------
- assay: Pharmacokinetic study in rats
- applied-conditions: male, Sprague-Dawley (SD), rat, in vivo, iv, 0.6 mg/kg
observation-type: Cmax (ng/mL)
Field format: number, assumed ng/mL, no unit text.

What measured Cmax goes with CC(C)[C@]12O[C@H]1[C@@H]1O[C@]13[C@]1(O[C@H]1C[C@H]1C4=C(CC[C@@]13C)C(=O)OC4)[C@@H]2O [Triptolide] ?
0.698

----------
- assay: Pharmacokinetic study in rats
- applied-conditions: male, Sprague-Dawley (SD), rat, in vivo, iv, 0.6 mg/kg
observation-type: MRT (min)
Response body: numeric value in min, unit text excluded.

Param item = CC(C)[C@]12O[C@H]1[C@@H]1O[C@]13[C@]1(O[C@H]1C[C@H]1C4=C(CC[C@@]13C)C(=O)OC4)[C@@H]2O [Triptolide] ; retrieve measured MRT.
32.8

The measured values listed here are drawn from patent US12605335B2.
